Measured Kd, listed per entry.
Target: HLA-A*02:01
Assay: IEDB peptide-MHC binding, purified MHC/direct/fluorescence; filed as Kd, often an IC50 or EC50 that approximates it; bounds were set here for any values at or beyond the usual limits of such assays
Settings: source organism: Vibrio parahaemolyticus

| seq_string | target_desc | Kd |
| --- | --- | --- |
| DQFSIPIRY | HLA-A*02:01 | ≥ 20 µM |
| ISDPAFKVF | HLA-A*02:01 | ≥ 20 µM |

---

Target: HLA-C*06:02
Assay: IEDB peptide-MHC binding, purified MHC/direct/fluorescence; filed as Kd, often an IC50 or EC50 that approximates it; bounds were set here for any values at or beyond the usual limits of such assays
Settings: source organism: Yellow fever virus
pKd: −log10 of the molar value.

| seq_string | pKd |
| --- | --- |
| YVIRDLAAM | ≤ 4.70 |

---

Target: HLA-A*03:01
Assay: IEDB peptide-MHC binding, purified MHC/direct/fluorescence; filed as Kd, often an IC50 or EC50 that approximates it; bounds were set here for any values at or beyond the usual limits of such assays
Conditions: source organism: Camelpox virus M-96
measure_name: Kd

| seq_string | measure_name | result |
| --- | --- | --- |
| DILASIIDY | Kd | ≥ 20 µM |
| EIKDRILSY | Kd | ≥ 20 µM |
| YPAVINSNI | Kd | ≥ 20 µM |

---

Biological target: HLA-A*03:01
Assay: IEDB peptide-MHC binding, purified MHC/competitive/fluorescence; filed as Kd, often an IC50 or EC50 that approximates it; bounds were set here for any values at or beyond the usual limits of such assays
Conditions: source organism: Pan troglodytes

| seq_string | Kd |
| --- | --- |
| YYFSYPLFV | ≥ 20 µM |

---

Molecular target: HLA-C*04:01
Assay: IEDB peptide-MHC binding, purified MHC/competitive/fluorescence; filed as Kd, often an IC50 or EC50 that approximates it; bounds were set here for any values at or beyond the usual limits of such assays
Settings: source organism: Escherichia coli
measure_name: Kd

| seq_string | target_desc | measure_name | result |
| --- | --- | --- | --- |
| MERFSWHVA | HLA-C*04:01 | Kd | ≥ 5 µM |

---

Molecular target: HLA-A*02:01
Assay: IEDB peptide-MHC binding, purified MHC/direct/fluorescence; filed as Kd, often an IC50 or EC50 that approximates it; bounds were set here for any values at or beyond the usual limits of such assays
Details: source organism: Rattus norvegicus

| seq_string | Kd (nM) |
| --- | --- |
| KQMEDGHTL | 4.8 |

---

Parameter Kd: see the listing below.
Target: HLA-B*40:01
Assay: IEDB peptide-MHC binding, purified MHC/direct/fluorescence; filed as Kd, often an IC50 or EC50 that approximates it; bounds were set here for any values at or beyond the usual limits of such assays
Conditions: source organism: Escherichia coli

| seq_string | target_desc | Kd |
| --- | --- | --- |
| NMERKLNLS | HLA-B*40:01 | ≥ 20 µM |
| LMQWWSDYV | HLA-B*40:01 | ≥ 20 µM |

---

Target: HLA-A*32:01
Assay: IEDB peptide-MHC binding, purified MHC/competitive/radioactivity; filed as Kd, often an IC50 or EC50 that approximates it; bounds were set here for any values at or beyond the usual limits of such assays
Details: source organism: Dengue virus 2 Jamaica/1409/1983
pKd: −log10 of the molar value.
Reported pKd values are given for each entry in this list.

| seq_string | pKd |
| --- | --- |
| ATMANEMGF | 6.86 |
| QVLMMRTTW | 7.13 |

All values here come from the Immune Epitope Database (IEDB).
